The values you see were collected from patent US20230089073A1.

target system: human GLP-1 receptor (Homo sapiens)
Construct: expressed in transfected cells
Sequence (P43220 24-463): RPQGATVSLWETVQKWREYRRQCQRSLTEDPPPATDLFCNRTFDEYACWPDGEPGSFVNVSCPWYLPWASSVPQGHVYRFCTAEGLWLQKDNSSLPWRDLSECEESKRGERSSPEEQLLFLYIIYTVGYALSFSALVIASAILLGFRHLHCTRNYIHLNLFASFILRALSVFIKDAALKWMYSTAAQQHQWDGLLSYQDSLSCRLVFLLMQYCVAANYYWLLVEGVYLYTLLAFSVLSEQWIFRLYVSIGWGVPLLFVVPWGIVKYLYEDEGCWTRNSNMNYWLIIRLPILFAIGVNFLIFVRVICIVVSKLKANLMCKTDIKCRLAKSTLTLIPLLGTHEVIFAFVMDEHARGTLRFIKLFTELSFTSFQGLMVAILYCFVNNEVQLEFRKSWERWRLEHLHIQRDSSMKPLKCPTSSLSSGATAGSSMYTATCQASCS
experimental protocol: GLP-1R cAMP Assay
Format: cell-based
particulars: cAMP accumulation in CHO cells stably overexpressing the human GLP-1 receptor; 30 min treatment; HitHunter cAMP kit; read-out: EC50
pEC50: −log10 of the molar value.

compound	pEC50
C[C@H]1C[C@@H](Oc2ccnc(COc3ccc(C4CC4)cc3C#N)n2)CCN1Cc1nc2c(F)cc(C(=O)O)cc2n1C[C@@H]1CCO1 [Compound 509]	> 7.30
N#CCC1(Cn2c(CN3CCC(Oc4ccnc(COc5ccc(F)cc5Cl)n4)CC3)nc3ccc(C(=O)O)cc32)CC1 [Compound 325]	> 7.30
C[C@H]1C[C@H](Oc2ccnc(COc3ccc(Cl)cc3Cl)c2)CCN1Cc1nc2ccc(C(=O)O)cc2n1C[C@@H]1CCO1 [Compound 295]	> 7.30
N#CCC1(Cn2c(CN3CCC(Oc4ccnc(COc5ccc(Cl)cc5Cl)n4)CC3)nc3c(F)cc(C(=O)O)cc32)CC1 [Compound 341]	> 7.30
Cc1ccc(OCc2cccc(C(=O)N3CCN(Cc4nc5ccc(C(=O)O)cc5n4C[C@@H]4CCO4)CC3)c2)c(Cl)c1 [Compound 64]	6.30 to 7.30
O=C(O)c1ccc2nc(CN3CCC(Oc4cccnc4COc4ccc(Cl)cc4Cl)CC3)n(C[C@@H]3CCO3)c2c1 [Compound 286]	< 6.30
N#Cc1cc(Cl)ccc1OCc1cccc(OC2CCN(Cc3nc4ccc(C(=O)O)cc4n3Cc3cnco3)CC2)n1 [Compound 252]	< 6.30
